Source listed as patent US20200095340A1.

target: biotinylated human DLL3 protein expressed as a human IgG1 fusion protein (human) (UniProt Q9NYJ7); experiment: Octet BLI; biotinylated huDLL3-IgG1 fusion on streptavidin tips; single 50 nM; conditioned medium
Sequence (Q9NYJ7 other isoform, or with tags, fused parts or gaps): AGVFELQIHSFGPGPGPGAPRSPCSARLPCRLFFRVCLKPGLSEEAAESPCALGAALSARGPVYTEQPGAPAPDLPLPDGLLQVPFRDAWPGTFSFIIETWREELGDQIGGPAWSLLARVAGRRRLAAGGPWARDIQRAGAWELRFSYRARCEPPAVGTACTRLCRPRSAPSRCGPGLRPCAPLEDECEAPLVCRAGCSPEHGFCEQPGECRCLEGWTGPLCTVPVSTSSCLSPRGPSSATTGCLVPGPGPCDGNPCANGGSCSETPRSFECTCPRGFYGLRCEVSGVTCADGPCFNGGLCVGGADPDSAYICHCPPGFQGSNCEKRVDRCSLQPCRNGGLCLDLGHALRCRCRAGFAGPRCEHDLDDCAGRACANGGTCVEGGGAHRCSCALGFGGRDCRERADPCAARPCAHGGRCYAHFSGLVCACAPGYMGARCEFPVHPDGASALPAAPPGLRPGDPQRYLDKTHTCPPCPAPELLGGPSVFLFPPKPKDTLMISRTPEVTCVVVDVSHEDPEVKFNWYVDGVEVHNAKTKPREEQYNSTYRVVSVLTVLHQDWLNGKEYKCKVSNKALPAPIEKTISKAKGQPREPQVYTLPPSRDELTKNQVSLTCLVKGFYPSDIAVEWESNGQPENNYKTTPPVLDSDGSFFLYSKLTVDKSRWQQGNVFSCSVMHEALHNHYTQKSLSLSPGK
valueKind: pKd
To interpret pKd, take it as minus log10 of a concentration measured in moles per litre.

binder: anti-DLL3 trispecific protein 2C010 (protein, part only; not given: CD3 binder and albumin binder, part only) chain, part: EVQLVESGGGLVQPGGSLTLSCVASGSTSKINAMGWYRRAPGKQRELVAGISSDRSKVYADSVKGRFTISRDNAKNSVYLQMNSLRAEDTAVYYCYYFRTVAGSSMRYWGQGTLVTVSSGGGGSGGGSGGGGSGGGSHHHHHH
pKd: 8.12

GET /values?readout=pKd&item= anti-DLL3 trispecific protein 4G09 (protein, part only; not given: anti-CD3 fragment and anti-albumin domain, part only) chain, part: EVQLVESGGGLVQPGGSLTLSCAASGSRVSFLSMAWYRQAPGKKRELVAGISYDGSTDYIDSVKGRFTISRDNAKNSVYLQMNSLRAEDTAVYYCYAYRWTTRRTYWGQGTLVTVSSGGGGSGGGSGGGGSGGGSHHHHHH
8.06
